Target: T1, Acro SARS-CoV-2 (COVID-19) S1 protein (SARS-CoV-2, UniProt P0DTC2 16-685)
T1 construct: also called SARS-CoV-2 S1
Test: SPR
Exercise: state measured Kd for each of the binders provided.
State just the number; it will be interpreted in nM.

Req: I have this binder here, variant 6-35 (Fc fusion) VHH: EVQLVESGGGLVQPGGSLRLSCAASGFTLAYYAMGWFRQAPGKEREFVAAISMSGDDTIYADSVKGRFTISADNSKNTAYLQMNSLKPEDTAVYYCARELGYSSTVWPWGQGTLVTVSS , and I need its recorded Kd.
Resp: 251

Req: Given the binder variant 6-22 (Fc fusion) VHH: EVQLVESGGGLVQPGGSLRLSCAASGRTFSEVVMGWFRQAPGKEREFVATIHSSGSTSYADSVKGRFTISADNSKNTAYLQMNSLKPEDTAVYYCVRVTSDYSMDSWGQGTLVTVSS , what is its reported Kd?
Resp: 25.6

Req: Endpoint output: Kd of variant 6-67 (Fc fusion) VHH: EVQLVESGGGLVQPGGSLRLSCAASGSFSNYAMGWFRQAPGKEREFVAAISSSGALTSYADSVKGRFTISADNSKNTAYLQMNSLKPEDTAVYYCWIVGPGPLDGMDVWGQGTLVTVSS . Value?
Resp: 55.6

Req: # get_value(readout='Kd', item= variant 5-65 (Fc fusion) VHH: EVQLVESGGGLVQPGGSLRLSCAASGNIDRLYAMGWFRQAPGKEREGVAAIDSDGSTDYADSVKGRFTISADNSKNTAYLQMNSLKPEDTAVYYCAALIDYGLGFPIEWGQGTLVTVSS )
Resp: 353

Req: So what does the record say about Kd for variant 6-77 (Fc fusion) VHH: EVQLVESGGGLVQPGGSLRLSCAASGFTFDRSWMGWFRQAPGKEREFVAAVTEGGTTSYADSVKGRFTISADNSKNTAYLQMNSLKPEDTAVYYCARADYDFDYWGQGTLVTVSS ?
Resp: 24.6

Req: Return reported Kd; argument: variant 6-32 (Fc fusion) VHH: EVQLVESGGGLVQPGGSLRLSCAASGFTLDYYDMGWFRQAPGKEREFVALISWSGGSTYYADSVKGRFTISADNSKNTAYLQMNSLKPEDTAVYYCATDFYGWGTRERDAFDIWGQGTLVTVSS
Resp: 27.2

Req: What value of Kd has been reported for the following binder? variant 6-10 (Fc fusion) VHH: EVQLVESGGGLVQPGGSLRLSCAASGSIASIHAMGWFRQAPGKEREFVAAISRSGGFGSYADSVKGRFTISADNSKNTAYLQMNSLKPEDTAVYYCARDDKYYDSSGYPAYFQHWGQGTLVTVSS
Resp: 29.7

Req: For the binder shown here, variant 6-70 (Fc fusion) VHH: EVQLVESGGGLVQPGGSLRLSCAASGFNLDDYADMGWFRQAPGKEREFVAAIGWGGGSTRYADSVKGRFTISADNSKNTAYLQMNSLKPEDTAVYYCAREILWFGEFGEPNVWGQGTLVTVSS , give the reported Kd.
Resp: 35.9
